IC50 for NAD-dependent protein deacetylase sirtuin-2 (Homo sapiens, UniProt Q8IXJ6), merged from several publications.

{"compound": "O=[N+]([O-])c1ccc(-c2noc(CCCBr)n2)cc1", "IC50": "6.6 µM"}
{"compound": "O=C(NCc1nc(-c2cccnc2)n[nH]1)c1cnccn1", "IC50": "2290 µM"}
{"compound": "COC(=O)[C@H](C)NC(=O)[C@H](CCCCNC(=O)C(C)(C)C)NC(=O)[C@H](C)NC(C)=O", "IC50": "338 µM"}
{"compound": "CC(=O)N1CC(C(N)=O)Oc2ccccc21 (stereo unspecified)", "IC50": "> 60 µM"}
{"compound": "CC(C)(C)OC(=O)c1ccc(C(=O)NCCC2CCN(c3ncnc4cc(C(N)=O)sc34)CC2)s1", "IC50": "0.0018 µM"}
{"compound": "Oc1ccc(/C=N/c2ccc(/N=C/c3ccc(O)cc3)c3ccccc23)cc1", "IC50": "137 µM"}
